FYI, the data here is from ChEMBL document CHEMBL1136447.

Test system: DU-145
METHOD SUMMARY: In vitro cytotoxic activity against prostate (DU145) cell line
Type: functional
CONDITION: Homo sapiens
# note: boundary value 6 µM maps to 0; GI50 below it maps to 1

# COMPOUND, ASSIGNED CATEGORY
data = [
    ("CC(=O)O[C@H]1C[C@@H](OC(C)=O)C(C)(C)C2C[C@@H](OC(C)=O)[C@@]3(C)C4=CC[C@@H](c5ccoc5)[C@]4(C)CCC3[C@]21C (stereo not given in full)", 1),
    ("CC(C)(C)OC(=O)NCC(=O)O[C@@H]1CC2C(C)(C)C(=O)C=C[C@]2(C)C2CC[C@]3(C)C(=CC[C@H]3c3ccoc3)[C@@]21C (stereo not given in full)", 0),
    ("CC1(C)C(=O)C=C[C@@]2(C)C1C[C@@H](OC(=O)CCl)[C@@]1(C)C3=CC[C@@H](c4ccoc4)[C@]3(C)CCC21 (stereo not given in full)", 1),
    ("CC1(C)C(=O)C=C[C@@]2(C)C1C[C@@H](O)[C@@]1(C)C3=CC[C@@H](c4ccoc4)[C@]3(C)CCC21 (stereo not given in full)", 0),
    ("COC1=C[C@@]2(C)C(C[C@@H](OC(C)=O)[C@@]3(C)C4=CC[C@@H](c5ccoc5)[C@]4(C)CCC23)C(C)(C)C1=O (stereo not given in full)", 0),
    ("CCN(CC)CCO/N=C1\\C=C[C@@]2(C)C(C[C@@H](OC(C)=O)[C@@]3(C)C4=CC[C@@H](c5ccoc5)[C@]4(C)CCC23)C1(C)C (stereo not given in full)", 0),
    ("CCOC1=C[C@@]2(C)C(C[C@@H](OC(C)=O)[C@@]3(C)C4=CC[C@@H](c5ccoc5)[C@]4(C)CCC23)C(C)(C)C1=O (stereo not given in full)", 0),
    ("CC(=O)O[C@@H]1CC2C(C)(C)C(=O)C=C[C@]2(C)C2CC[C@]3(C)C(=CC[C@H]3c3ccoc3)[C@@]21C (stereo not given in full)", 1),
]

====

Measured GI50 by item
System: SK-OV-3
METHOD SUMMARY: In vitro cytotoxic activity against Ovarian (SK-OV3) cell line
Assay type: functional
CONDITION: Homo sapiens

# COMPOUND, QUALIFYING SIGN, GI50, µM
measured = [
    ("CC1(C)C(=O)C=C[C@@]2(C)C1C[C@@H](OC(=O)CCl)[C@@]1(C)C3=CC[C@@H](c4ccoc4)[C@]3(C)CCC21 (stereo not given in full)", "=", 5),
    ("CC(=O)O[C@@H]1CC2C(C)(C)/C(=N/OCCN3CCCC3)C=C[C@]2(C)C2CC[C@]3(C)C(=CC[C@H]3c3ccoc3)[C@@]21C (stereo not given in full)", "=", 4),
    ("CC1(C)C(=O)C=C[C@@]2(C)C1C[C@@H](O)[C@@]1(C)C3=CC[C@@H](c4ccoc4)[C@]3(C)CCC21 (stereo not given in full)", ">", 100),
    ("CCN(CC)CCO/N=C1\\C=C[C@@]2(C)C(C[C@@H](OC(C)=O)[C@@]3(C)C4=CC[C@@H](c5ccoc5)[C@]4(C)CCC23)C1(C)C (stereo not given in full)", "=", 3),
    ("CC(C)(C)OC(=O)NCC(=O)O[C@@H]1CC2C(C)(C)C(=O)C=C[C@]2(C)C2CC[C@]3(C)C(=CC[C@H]3c3ccoc3)[C@@]21C (stereo not given in full)", "=", 65),
    ("CCOC1=C[C@@]2(C)C(C[C@@H](OC(C)=O)[C@@]3(C)C4=CC[C@@H](c5ccoc5)[C@]4(C)CCC23)C(C)(C)C1=O (stereo not given in full)", "=", 40),
    ("CC1(C)C(=O)C=C[C@@]2(C)C1CC(=O)[C@@]1(C)C3=CC[C@@H](c4ccoc4)[C@]3(C)CCC12 (stereo not given in full)", "=", 7.5),
    ("CC(=O)O[C@@H]1CC2C(C)(C)C(=O)C=C[C@]2(C)C2CC[C@]3(C)C(=CC[C@H]3c3ccoc3)[C@@]21C (stereo not given in full)", "=", 5),
    ("COC1=C[C@@]2(C)C(C[C@@H](OC(C)=O)[C@@]3(C)C4=CC[C@@H](c5ccoc5)[C@]4(C)CCC23)C(C)(C)C1=O (stereo not given in full)", "=", 35),
    ("CC(=O)O[C@H]1C[C@@H](OC(C)=O)C(C)(C)C2C[C@@H](OC(C)=O)[C@@]3(C)C4=CC[C@@H](c5ccoc5)[C@]4(C)CCC3[C@]21C (stereo not given in full)", "=", 9),
]

====

Form: system (NCI-H522), quantity (GI50), values below.

# MOLECULE, TARGET SYSTEM, QUALIFYING SIGN, GI50 / µM
measured = [
    ("CCOC1=C[C@@]2(C)C(C[C@@H](OC(C)=O)[C@@]3(C)C4=CC[C@@H](c5ccoc5)[C@]4(C)CCC23)C(C)(C)C1=O (some centres not stated)", "NCI-H522", "=", 30),
    ("CCN(CC)CCO/N=C1\\C=C[C@@]2(C)C(C[C@@H](OC(C)=O)[C@@]3(C)C4=CC[C@@H](c5ccoc5)[C@]4(C)CCC23)C1(C)C (some centres not stated)", "NCI-H522", "=", 3),
    ("CC1(C)C(=O)C=C[C@@]2(C)C1C[C@@H](OC(=O)CCl)[C@@]1(C)C3=CC[C@@H](c4ccoc4)[C@]3(C)CCC21 (some centres not stated)", "NCI-H522", "=", 4),
    ("CC(=O)O[C@@H]1CC2C(C)(C)/C(=N/OCCN3CCCC3)C=C[C@]2(C)C2CC[C@]3(C)C(=CC[C@H]3c3ccoc3)[C@@]21C (some centres not stated)", "NCI-H522", "=", 4),
    ("CC1(C)C(=O)C=C[C@@]2(C)C1CC(=O)[C@@]1(C)C3=CC[C@@H](c4ccoc4)[C@]3(C)CCC12 (some centres not stated)", "NCI-H522", "=", 25),
    ("CC1(C)C(=O)C=C[C@@]2(C)C1C[C@@H](O)[C@@]1(C)C3=CC[C@@H](c4ccoc4)[C@]3(C)CCC21 (some centres not stated)", "NCI-H522", ">", 100),
    ("CC(=O)O[C@H]1C[C@@H](OC(C)=O)C(C)(C)C2C[C@@H](OC(C)=O)[C@@]3(C)C4=CC[C@@H](c5ccoc5)[C@]4(C)CCC3[C@]21C (some centres not stated)", "NCI-H522", "=", 40),
]

====

Test system: SW-620
METHOD SUMMARY: In vitro cytotoxic activity against colon (SW620) cell line at a concentration of 10e-5 M
Format: functional, Homo sapiens

# COMPOUND, Growth (%)
records = [
    ("CC1(C)C(=O)C=C[C@@]2(C)C1C[C@@H](OC(=O)/C=C\\c1ccccc1)[C@@]1(C)C3=CC[C@@H](c4ccoc4)[C@]3(C)CCC21 (some centres undefined)", 86),
    ("CC(=O)O[C@@H]1CC2C(C)(C)/C(=N/O)C=C[C@]2(C)C2CC[C@]3(C)C(=CC[C@H]3c3ccoc3)[C@@]21C (some centres undefined)", 47),
    ("CC(=O)O[C@H]1C[C@@H](OC(C)=O)C(C)(C)C2C[C@@H](OC(C)=O)[C@@]3(C)C4=CC[C@@H](c5ccoc5)[C@]4(C)CCC3[C@]21C (some centres undefined)", -60),
    ("COC1=C[C@@]2(C)C(C[C@@H](OC(C)=O)[C@@]3(C)C4=CC[C@@H](c5ccoc5)[C@]4(C)CCC23)C(C)(C)C1=O (some centres undefined)", 35),
]

====

Form: system (NCI-H522), quantity (GI50), values below.

# COMPOUND, GI50, µM
rows = [
    ("COC1=C[C@@]2(C)C(C[C@@H](OC(C)=O)[C@@]3(C)C4=CC[C@@H](c5ccoc5)[C@]4(C)CCC23)C(C)(C)C1=O (stereo partly drawn)", 40),
    ("CC(C)(C)OC(=O)NCC(=O)O[C@@H]1CC2C(C)(C)C(=O)C=C[C@]2(C)C2CC[C@]3(C)C(=CC[C@H]3c3ccoc3)[C@@]21C (stereo partly drawn)", 15),
    ("CC(=O)O[C@@H]1CC2C(C)(C)C(=O)C=C[C@]2(C)C2CC[C@]3(C)C(=CC[C@H]3c3ccoc3)[C@@]21C (stereo partly drawn)", 6),
]

====

Test system: SW-620
METHOD SUMMARY: In vitro cytotoxic activity against colon (SW620) cell line at a concentration of 10e-5 M
Type: functional, Homo sapiens
Criterion met means recorded Growth is 60% or above; Criterion not met means it is below 60%.

# COMPOUND, ASSIGNED CATEGORY
measured = [
    ("CC(=O)O[C@@H]1CC2C(C)(C)C(=O)C=C[C@]2(C)C2CC[C@]3(C)C(=CC[C@H]3C3=CC(=O)OC3O)[C@@]21C.CC(=O)O[C@@H]1CC2C(C)(C)C(=O)C=C[C@]2(C)C2CC[C@]3(C)C(=CC[C@H]3C3=CC(O)OC3=O)[C@@]21C (stereo partly specified)", "Criterion met"),
    ("CCN(CC)CCO/N=C1\\C=C[C@@]2(C)C(C[C@@H](OC(C)=O)[C@@]3(C)C4=CC[C@@H](c5ccoc5)[C@]4(C)CCC23)C1(C)C (stereo partly specified)", "Criterion not met"),
    ("CCOC1=C[C@@]2(C)C(C[C@@H](O)[C@@]3(C)C4=CC[C@@H](c5ccoc5)[C@]4(C)CCC23)C(C)(C)C1=O (stereo partly specified)", "Criterion not met"),
    ("CCOC1=C[C@@]2(C)C(C[C@@H](OC(C)=O)[C@@]3(C)C4=CC[C@@H](c5ccoc5)[C@]4(C)CCC23)C(C)(C)C1=O (stereo partly specified)", "Criterion met"),
]
